Examples of binders with documented relative binding activity follow.
# target-entity: HLA-DR1 (DRB1*0101) (human)
# test-method-notes: competition ELISA, tracer biotin-HA 306-318

binder	relative binding activity
ARYNAQCQETIRVTK (synthetic 15-mer of the human midkine precursor; also called MDK17) [MDK 110-124]	10 IC50 ratio to reference peptide
ENWGACDGGTGTKVR (also called MDK14) [MDK 89-103]	1460 IC50 ratio to reference peptide
CRVPCNWKKEFGADC (also called MDK10) [MDK 70-84]	53 IC50 ratio to reference peptide
GTKVRQGTLKKARYN (also called MDK15) [MDK 99-113]	3000 IC50 ratio to reference peptide
LTLLALLALTSAVAK (synthetic 15-mer of the human midkine precursor; also called MDK3; peptide 9-23) [MDK 9-23]	0.2 IC50 ratio to reference peptide

For KDKVKKGGPGSECAE (also called MDK6) [MDK 25-39] , what is its reported relative binding activity?
1250 IC50 ratio to reference peptide

Moving on to the next binder: AEWAWGPCTPSSKDC (also called MDK7) [MDK 38-52]
1300 IC50 ratio to reference peptide

Cool, now ETIRVTKPCTPKTKA (also called MDK18) [MDK 119-133]
2 IC50 ratio to reference peptide

Repeat with GTLKKARYNAQCQET (also called MDK16) [MDK 105-119]
97 IC50 ratio to reference peptide
